experiment: chemical genetic growth profiling, strain panel (AID 1159580);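 also: tested at 20 µM; growth read once vehicle control cultures reached saturation at 30 °C; 1 = growth at the plate median or of vehicle wells; lower values mean less growth of the strain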; settings: S. cerevisiae deletion strains, growth OD, locus YKL190W, strain CNB1, stronger effect = lower value
Screen size: about 5,500 compounds; about 2,000 (36%) were called active. Another 18% or so got no clear call; they are omitted. The list shows a part of the results.
reportedMetric: normalized growth
Field format: numeric only.

compound: COc1cc2c(cc1OC)CC(=O)OC2
normalized growth: 1

compound: CN1CCCN=C1COC(=O)C(O)(c1ccccc1)C1CCCCC1 (stereo unspecified)
normalized growth: 0.997

compound: CC1/C(=N\O)C[C@@H]2C[C@H]1C2(C)C (stereo partly specified)
normalized growth: 1.01

compound: COc1cc2c(cc1OC)C(=O)OC2
normalized growth: 1

compound: CC(=O)OC(C)(C)[C@@H]1Cc2cc3ccc(=O)oc3cc2O1
normalized growth: 1.01

Now for the compound whose normalized growth we want.
Problem: Look up normalized growth of COc1ccc2c(c1OC)C(=O)O[C@@H]2[C@H]1c2cc3c(cc2CCN1C)OCO3 and report it.
Solution: 1.02
